These entries and their values trace back to BindingDB's records for doi:10.7270/Q26H4FT9.

Biological target: Cell division control protein 42 homolog (Homo sapiens, UniProt P60953)
Sequence (P60953 whole entry): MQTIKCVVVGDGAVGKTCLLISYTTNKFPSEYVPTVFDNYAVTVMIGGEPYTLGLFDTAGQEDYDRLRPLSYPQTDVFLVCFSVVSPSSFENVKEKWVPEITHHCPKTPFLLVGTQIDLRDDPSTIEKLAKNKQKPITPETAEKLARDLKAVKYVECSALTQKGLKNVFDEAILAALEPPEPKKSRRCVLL
Experiment: Cdc42 activated mutant GTP-binding inhibitors, SAR follow-up, biochemical, bead-based multiplex flow cytometry, additional SAR set (AID 2021)
Endpoint name: EC50 (µM)

O=C1Nc2c(Br)cccc2C1=C1Nc2ccccc2C1=O = 30
O=C1Nc2c(F)cccc2C1=C1Nc2ccccc2C1=O = 30
O=C1N=c2ccccc2=C1c1[nH]c2ccccc2c1NO = 30
O=C1NC(=S)N/C1=C1\C(=O)Nc2ccccc21 = 30
